Tested on: Mtb H37Rv strain
Assay: Checkerboard assay with rifampicin, ethambutol, delamanid and amoxicillin (384-well, MTT or ATP)
Assay type: cell-based, Mycobacterium tuberculosis
Conditions: Comp B in the presence of SFT
property: MICsyn_B (µM)
Give bare numbers, in µM.

Lab note: each compound below needs its MICsyn_B filled in.
1. CC1(C)S[C@@H]2[C@H](NC(=O)[C@H](N)c3ccc(O)cc3)C(=O)N2[C@H]1C(=O)O
2. CC[C@@H](CO)NCCN[C@@H](CC)CO
3. CO[C@H]1/C=C/O[C@@]2(C)Oc3c(C)c(O)c4c(O)c(c(/C=N/N5CCN(C)CC5)c(O)c4c3C2=O)NC(=O)/C(C)=C\C=C\[C@H](C)[C@H](O)[C@@H](C)[C@@H](O)[C@@H](C)[C@H](OC(C)=O)[C@@H]1C
4. C[C@]1(COc2ccc(N3CCC(Oc4ccc(OC(F)(F)F)cc4)CC3)cc2)Cn2cc([N+](=O)[O-])nc2O1

Output:
8
2
0.005
0.0025
